B1: tRNA (parent)
chain: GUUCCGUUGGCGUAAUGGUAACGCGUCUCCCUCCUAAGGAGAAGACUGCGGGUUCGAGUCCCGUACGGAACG

variants of: B1; experiment: yeast fitness relative to wild type (ratio to wild type); higher = fitter; tRNA-Arg(CCU), competitive growth, 37 C, YPD
This sample holds only a part of the variants without activity.
measuredAttribute: yeast fitness

C49U G63C
0.703
U13G A40U C62A
0.52
C11A A20U C29U C33G
0.578
C5G A14C G38C G39A A43C C60G A65C
≤ 0.5
G6A U19C U28G U32A G38C
≤ 0.5

Provide the reported yeast fitness of each entry below, same order.
1. C5U A14C A21C C33U G56A
2. G17A A36U C46U
3. G18A G25C A43U U59A G63A
4. G17A C61G G68A
5. G18C C49U C62U
6. C4G U7C A20G C27A U59G

Response given:
1: ≤ 0.5; 2: ≤ 0.5; 3: ≤ 0.5; 4: ≤ 0.5; 5: ≤ 0.5; 6: ≤ 0.5
